Consider the following compounds; for each one, report its inhibition at 0.001 µM.
# tested on: CYP17 (human testicular microsome) (Homo sapiens, UniProt P05093)
# Construct: using microsomal fraction from human testis (Celsis Cat #S00110) as the enzyme source; tissue Celsis S00110; host or cells: human testis microsomal fraction
# Sequence (P05093 whole entry): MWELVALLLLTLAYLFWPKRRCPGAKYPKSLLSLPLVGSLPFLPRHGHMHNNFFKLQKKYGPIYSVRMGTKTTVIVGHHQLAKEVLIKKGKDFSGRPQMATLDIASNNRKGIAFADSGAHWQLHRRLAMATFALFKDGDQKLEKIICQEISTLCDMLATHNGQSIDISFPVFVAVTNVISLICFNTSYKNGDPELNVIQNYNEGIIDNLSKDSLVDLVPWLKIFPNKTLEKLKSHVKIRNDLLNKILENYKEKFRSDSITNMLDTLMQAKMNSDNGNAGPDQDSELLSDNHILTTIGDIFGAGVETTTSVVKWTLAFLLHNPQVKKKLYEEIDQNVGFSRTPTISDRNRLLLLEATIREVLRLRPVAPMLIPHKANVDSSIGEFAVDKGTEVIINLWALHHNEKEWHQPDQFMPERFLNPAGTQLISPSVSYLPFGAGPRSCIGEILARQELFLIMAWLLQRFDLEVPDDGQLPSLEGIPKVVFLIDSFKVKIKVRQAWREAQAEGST
# method notes: CYP17 enzymatic assay (% inhibition at 1 nM) (Biological Example 12)
# Assay type: biochemical
# stated conditions: compound at 1 nM, read-out: CYP17 enzymatic assay % inhibition at 1 nM (Biological Example No. 12)

Ask | Would you kindly share the measured inhibition at 0.001 µM for C[C@]1(O)CC[C@@]2(C)C(CCC3C2CC[C@]2(C)C(c4cccnc4)=CCC32)C1 (some centres unmarked) [Compound 254] ?
Reply | > 50%

Ask | How about this compound: C[C@]12CC[C@H]3[C@@H](CCC4=CC(=O)C=C[C@@]43C)C1=CC=C2c1cccnc1 [Compound 290]
Reply | > 50%

Ask | How about this compound: C[C@]12CCC3C(CC4OC45C[C@@H](O)CC[C@]35C)C1=CC=C2c1cccnc1 (some centres unmarked) [Compound 439]
Reply | > 50%

Ask | How about this compound: C[C@]12CCC3C(CC=C4C=CCC[C@@]43C)C1=CC=C2c1cccnc1 (some centres unmarked) [Compound 197]
Reply | 10 to 50%

Ask | How about this compound: Cc1ccccc1C(=O)O[C@H]1CC[C@@]2(C)C(=CCC3C4=CC=C(c5cccnc5)[C@@]4(C)CCC32)C1 (some centres unmarked) [Compound 195]
Reply | 10 to 50%

Ask | How about this compound: C[C@]12CCC(=O)C=C1C1(CC1)C[C@@H]1[C@@H]2CC[C@]2(C)C(c3cccnc3)=CC[C@@H]12 [Compound 313]
Reply | > 50%

Ask | How about this compound: C[C@]12CCC3C(CCC4=CC(=O)CC[C@@]43C)C1=CC=C2c1cnccn1 (some centres unmarked) [Compound 291]
Reply | > 50%

Ask | How about this compound: C[C@]12CCC3C(C=CC4=C(O)C(=O)CC[C@@]43C)C1=CC=C2c1cccnc1 (some centres unmarked) [Compound 297]
Reply | > 50%

Ask | How about this compound: C[C@]12CC[C@@H](NC(=O)C3CC3)CC1CCC1C2CC[C@]2(C)C(c3cccnc3)=CCC12 (some centres unmarked) [Compound 220]
Reply | > 50%

Ask | How about this compound: CC(=O)N[C@@H]1CC[C@@]2(C)C(=CCC3C4=CC=C(c5cccnc5)[C@@]4(C)CCC32)C1 (some centres unmarked) [Compound 243]
Reply | > 50%

Ask | How about this compound: CC(=O)N(C)C1CC[C@@]2(C)C(CCC3C2CC[C@]2(C)C(c4cncc(C)c4)=CCC32)C1 (some centres unmarked) [Compound 212]
Reply | 10 to 50%

Ask | How about this compound: C[C@]12CCC3C(CCC4=CC(=O)CC[C@@]43C)C1=CC=C2c1cncnc1 (some centres unmarked) [Compound 471]
Reply | > 50%

Ask | How about this compound: COC(=O)N1CCC[C@@]2(C)[C@@H](CC[C@@H]3[C@@H]2CC[C@]2(C)C(n4ccnc4)=CC[C@@H]32)C1 [Compound 442]
Reply | 10 to 50%

Ask | How about this compound: CC(=O)N[C@@H]1CC[C@@]2(C)C(CCC3C2CC[C@]2(C)C(c4cccnc4)=CCC32)C1 (some centres unmarked) [Compound 215]
Reply | > 50%

Ask | How about this compound: CCNC(=O)NC1CC[C@@]2(C)C(=CC[C@@H]3[C@@H]2CC[C@]2(C)C(c4cncc(OC)c4)=CC[C@@H]32)C1 (some centres unmarked) [Compound 234]
Reply | 10 to 50%

Ask | How about this compound: CC(=O)N[C@@H]1CC[C@@]2(C)C(CC[C@H]3C4=CC=C(c5cccnc5)[C@@]4(C)CC[C@@H]32)C1 (some centres unmarked) [Compound 244]
Reply | > 50%

Ask | How about this compound: CC1=C2CCC3C4=CC=C(c5cccnc5)[C@@]4(C)CCC3[C@@]2(C)CCC1=O (some centres unmarked) [Compound 296]
Reply | > 50%

Ask | How about this compound: COc1cncc(C2=CCC3C4CC=C5N(C)C(=O)C[C@]5(C)C4CC[C@]23C)c1 (some centres unmarked) [Compound 187]
Reply | > 50%

Ask | How about this compound: CCNC(=O)N[C@@H]1CC[C@@]2(C)C(CC[C@@H]3[C@@H]2CC[C@]2(C)C(n4ccnc4)=CC[C@@H]32)C1 (some centres unmarked) [Compound 247]
Reply | > 50%

Ask | How about this compound: C[C@]12CCC(=O)C=C1CC[C@@H]1[C@@H]2CC[C@]2(C)C(c3cccnc3)CC[C@@H]12 (some centres unmarked) [Compound 419]
Reply | 10 to 50%

Ask | How about this compound: Cc1cncc(C2=CCC3C4CC=C5N(C)C(=O)C[C@]5(C)C4CC[C@]23C)c1 (some centres unmarked) [Compound 188]
Reply | 10 to 50%

Ask | How about this compound: CO[C@H]1CC[C@@]2(C)[C@@H](CC[C@@H]3[C@@H]2CC[C@]2(C)C(c4cnccc4C)=CC[C@@H]32)C1 [Compound 458]
Reply | 10 to 50%

Ask | How about this compound: Cc1ccncc1C1=CCC2C3CN(C)C4=CC(=O)CC[C@]4(C)C3CC[C@]12C (some centres unmarked) [Compound 444]
Reply | 10 to 50%

Ask | How about this compound: C[C@]12CC[C@@H](N=[N+]=[N-])CC1CC[C@@H]1[C@@H]2CC[C@]2(C)C(c3cccnc3)=CC[C@@H]12 (some centres unmarked) [Compound 214b]
Reply | 10 to 50%

Ask | How about this compound: CC1C[C@@H]2[C@H](CC[C@]3(C)C(c4cccnc4)=CC[C@@H]23)[C@@]2(C)CCC(=O)C=C12 (some centres unmarked) [Compound 309]
Reply | > 50%

Ask | How about this compound: C[C@]1(O)CC[C@@]2(C)C(CCC3C4=CC=C(c5cccnc5)[C@@]4(C)CCC32)C1 (some centres unmarked) [Compound 259]
Reply | 10 to 50%
